Value source: the supplement of paper PMC6555819

System: PPARa:RXRa (NR concentration 270 nM, RXRa partner concentration 90 nM)
measurement-protocol: PBM binding z-score (relative to random genomic background probes); higher = stronger binding; sequences stand for … in GC…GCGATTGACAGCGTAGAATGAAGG
measurement-name: PBM binding z-score
# respond with the number and nothing more

Lookup: Quick one: PBM binding z-score for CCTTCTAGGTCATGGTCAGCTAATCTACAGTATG ?
Found: 4.37

Lookup: Quick one: PBM binding z-score for CTTCCAAGGTCAAAGGTCAGTGAAGAGATGACGG ?
Found: 7.29

Lookup: Quick one: PBM binding z-score for TCATATAGGTAAACAGGCGAAAGTCCGTAAGTTA ?
Found: 1.56

Lookup: Quick one: PBM binding z-score for CCTAGCAGGCCAATCTGGGTCACTCAGGGCTTGA ?
Found: 2.61

Lookup: Quick one: PBM binding z-score for ACTAGCAGGCCAACTTTGGGTCACTCAAACAAAG ?
Found: 1.53

Lookup: Quick one: PBM binding z-score for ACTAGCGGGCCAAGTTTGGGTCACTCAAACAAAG ?
Found: 1.5

Lookup: Quick one: PBM binding z-score for ATATGTAGGTTAAGGGCCATTCAGGTTGGTTCGC ?
Found: 4.43

Lookup: Quick one: PBM binding z-score for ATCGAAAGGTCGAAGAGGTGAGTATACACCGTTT ?
Found: 4.09

Lookup: Quick one: PBM binding z-score for CCTAGAAGGCCAATCTGGGTCACTCAAGGCTTGA ?
Found: 3.72

Lookup: Quick one: PBM binding z-score for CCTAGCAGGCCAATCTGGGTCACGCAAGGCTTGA ?
Found: 3.34
